# Assay system: T1, human PAI-1 (human, UniProt P05121 24-402)
# T1 construct: also used for endogenous PAI-1 of human plasma, liver lysate and lung fibroblasts; also called hPAI-1; hPAI
# T1 sequence (P05121 24-402 limits assumed): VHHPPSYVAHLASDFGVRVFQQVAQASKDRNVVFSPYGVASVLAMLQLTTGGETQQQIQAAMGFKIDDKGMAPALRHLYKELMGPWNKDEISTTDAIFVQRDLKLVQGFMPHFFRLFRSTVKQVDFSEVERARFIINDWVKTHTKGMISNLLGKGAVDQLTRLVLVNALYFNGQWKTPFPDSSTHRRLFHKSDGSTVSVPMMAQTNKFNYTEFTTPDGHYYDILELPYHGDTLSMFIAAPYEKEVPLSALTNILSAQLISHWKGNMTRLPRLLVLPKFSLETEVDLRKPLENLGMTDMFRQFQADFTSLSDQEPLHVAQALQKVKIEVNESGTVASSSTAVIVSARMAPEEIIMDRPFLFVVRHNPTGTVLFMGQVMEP
# Procedure details: Biacore, hybridoma supernatant
Quantity measured: koff

Binder	Measured result
C45 (antibody, mouse IgG2b, V domains shown, mouse IgG2b; also called mC45; C45 (IgG2b)) VH: QVQLQQSGVELVRPGTSVKVSCKASGYAFTNYLIEWIKQRPGQGLEWIGVIHPGSGVTNYNEKFKGKAILTADKSSSTAYMQLSSLTSDDSAVYFCARDYYGSSHGLMDYWGQGTSVTVSS VL: DIKMTQSPSSMYASLGERVTITCKASQDINSYLSWFQQKPGKSPKTLIYRANRLVDGVPSRFSGSGSGQDYSLTISSLEYEDMGIYYCLQYDEFPRTFGGGTKLEIK	≤ 0.0001 s⁻¹
A44 (antibody, mouse IgG1, V domains shown, mouse IgG1/kappa; also called mA44; A44 parental) VH: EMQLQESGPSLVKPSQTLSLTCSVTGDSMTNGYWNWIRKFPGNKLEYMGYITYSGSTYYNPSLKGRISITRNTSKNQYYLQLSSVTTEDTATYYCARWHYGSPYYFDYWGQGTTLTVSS VL: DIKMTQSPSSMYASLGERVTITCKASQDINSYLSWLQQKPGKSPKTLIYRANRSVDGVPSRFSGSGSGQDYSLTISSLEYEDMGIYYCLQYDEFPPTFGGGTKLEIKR	≤ 0.0001 s⁻¹

Lab note: next binder to report on.
-- ask Reported koff for E16 (antibody, mouse IgG1, V domains shown, mouse IgG1; also called mE16; E16 (IgG1)) VH: EVKLVESGGGLVKPGGSLKLSCAASGFTFSNYGMSWVRQTPEKGLGWVASLRTGGNTYYSDSVKGRFTISRDNDRNILYLQMSSLTSEDTAVYYCARGLRHWGYFDVWGAGTTVTVSS VL: DIVMTQSHKFMSTSVGDRVNITCKASQDVSTAVGWYQQEPGQSPKLLIYSASNRHTGVPDRFTGSGSGTDFTFTISSVQAEDLAVYYCQQHYSSPWTFGGGTKLEIK : what is it?
-- reply ≤ 0.0001 s⁻¹
